# Tested on: T1, CD137-hisFc fusion protein (Sino Biological Cat 10041-H03H) (human, UniProt Q07011 24-186)
# T1 construct: Bought; also called recombinant human CD137 (fused with human Fc and His tag); not shown: His tag and human Fc
# Protocol notes: BLI Octet, Fab
We begin with a simple list: items and their reported kon.
Only the number, expressed in M⁻¹ s⁻¹, is required.

Fab 7109 (Fab, V domains shown, Fab from E. coli; also called VH52/VL52) VH: EVQLVESGGGLVQPGGSLRLSCAASGFSLSTSGVGVSWIRQAPGKGLEWVSYISGSGDTTYYADSVKGRFTISRDNSKNTLYLQLNSLRAEDTAVYYCAREGSDAVLGDWFAYWGQGTLVTVSS VL: DIQLTQSPSSLSASVGDRVTITCRASQGISSYLAWYQQKPGKAPKLLIYDASNLETGVPSRFSGSGSGTDFTLTISSLQPEDFATYYCQQYYSTPLTFGQGTKVEIKR | 173000

stdin: Query: kon; subject: Fab 7166 (Fab, V domains shown, Fab from E. coli; also called VH60/VL60) VH: EVQLVESGGGLVQPGGSLRLSCAASGFSLSTSGVAVAWIRQAPGKGLEWIGDIYHSGNTYYNPSLKSRVTISRDNSKNTLYLQLNSLRAEDTAVYYCARGGSDTVVGDWFAYWGQGTLVTVSS VL: DIQLTQSPSSLSASVGDRVTITCRASQSISSYLNWYQQKPGKAPKLLIYAASTLQSGVPSRFSGSGSGTDFTLTISSLQPEDFATYYCQQYYSTPLTFGQGTKVEIKR
stdout: 345000

FYI, the data here is from patent US20190055314A1.
